# System: HCT-116
# Experiment Summary: Inhibition of Bmi1 protein expression in human HCT116 cells after 8 hrs by Western blot analysis
# Assay type: functional, cell-based
# Run Parameters: HCT-116, 8 h
Endpoint: pIC50
A value of pIC50 is the negative decimal logarithm of a concentration given in moles per litre.

COc1cc2c(cc1C(=O)Nc1ccccc1OC(F)(F)F)CC[C@H]1C(C)(C)C(=O)C(C#N)=C[C@]21C ... 6.08

Given the entry "COc1cc(Br)c(Nc2nc(-c3c(C)nc4ncccn34)cs2)c(Br)c1" , what pIC50 was observed with HCT-116?
6.15

###

# System: HT-29
# Experiment Summary: Antiproliferative activity against human HT-29 cells after 72 hrs by SRB assay
# Type: functional, cell-based
# Run Parameters: HT-29, 72 h
Endpoint: log10 of IC50 (log10 of the value in nM)
Scale: decimal log of IC50, IC50 in nM.

COc1cc2c(cc1C(=O)Nc1cccc(OC(F)(F)F)c1)CC[C@H]1C(C)(C)C(=O)C(C#N)=C[C@]21C ... 2.75

Return reported log10 of IC50; argument: "COc1cc2c(cc1C(=O)NCc1ccc(OC(F)(F)F)cc1)CC[C@H]1C(C)(C)C(=O)C(C#N)=C[C@]21C"
3.14

Return reported log10 of IC50; argument: "COc1cc2c(cc1C(=O)NNc1ccc(OC(F)(F)F)cc1)CC[C@H]1C(C)(C)C(=O)C(C#N)=C[C@]21C"
3.21

Return reported log10 of IC50; argument: "COc1cc2c(cc1C(=O)Nc1ccc(OC(F)(F)F)cc1)CC[C@H]1C(C)(C)C(=O)C(C#N)=C[C@]21C"
2.73

Return reported log10 of IC50; argument: COC(=O)[C@]12CCC(C)(C)C[C@H]1[C@H]1C(=O)C=C3[C@@]4(C)C=C(C#N)C(=O)C(C)(C)[C@@H]4CC[C@@]3(C)[C@]1(C)CC2 [BARDOXOLONE METHYL]
2.45

Return reported log10 of IC50; argument: "COc1cc2c(cc1C(=O)Nc1ccc(OC(F)(F)F)cc1)CC[C@H]1C(C)(C)C(=O)C=C[C@]21C"
3.61

Return reported log10 of IC50; argument: "COc1cc(Br)c(Nc2nc(-c3c(C)nc4ncccn34)cs2)c(Br)c1"
2.79

Return reported log10 of IC50; argument: "COc1cc2c(cc1C(=O)Nc1ccccc1OC(F)(F)F)CC[C@H]1C(C)(C)C(=O)C(C#N)=C[C@]21C"
2.65

Return reported log10 of IC50; argument: "CC1(C)C(=O)C(C#N)=C[C@]2(C)c3cc(O)c(C(=O)Nc4ccc(OC(F)(F)F)cc4)cc3CC[C@@H]12"
3.38
